Hello, the source for this data is PubChem BioAssay AID2060614, in case you need it.

system: 598228-144-R-J1-PDC complex spheroids, viability; assay: Anticancer human tumor 598228-144-R-J1-PDC patient-derived serous endometrial adenocarcinoma cell line growth inhibition [CLK]; conditions: curve of first compound; second compound 10 µM;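 note: spheroids exposed to compounds for seven days before readout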
measurement name: IC50

* CC(CO)NC(=O)c1cc(-c2ccc(Cl)cc2)nn(-c2cnn(C)c2)c1=O (stereo not given) + CN1CCN(c2cc(C(=O)Nc3cc4cc(-c5cnn(C)c5)ccc4cn3)ccn2)CC1 | < 31.6 nM
* Nc1ccccc1NC(=O)c1ccc(CNC(=O)OCc2cccnc2)cc1 + CN1CCN(c2cc(C(=O)Nc3cc4cc(-c5cnn(C)c5)ccc4cn3)ccn2)CC1 | < 31.6 nM
* COc1cccc2c1C(=O)c1c(O)c3c(c(O)c1C2=O)CC(O)(C(=O)CO)CC3OC1CC(N)C(O)C(C)O1 (stereo not given) + CN1CCN(c2cc(C(=O)Nc3cc4cc(-c5cnn(C)c5)ccc4cn3)ccn2)CC1 | < 31.6 nM
* C#Cc1c(F)ccc2cc(O)cc(-c3ncc4c(N5CC6CCC(C5)N6)nc(OCC56CCCN5CC(F)C6)nc4c3F)c12 (stereo not given) + CNC(=O)c1ccc(Nc2nc(OC3CCCC3)c3c(-c4ccc5nc(C)oc5c4)c[nH]c3n2)c(OC)c1 | > 10000 nM
* CCCS(=O)(=O)Nc1ccc(F)c(C(=O)c2c[nH]c3ncc(-c4ccc(Cl)cc4)cc23)c1F + CN1CCN(c2cc(C(=O)Nc3cc4cc(-c5cnn(C)c5)ccc4cn3)ccn2)CC1 | < 31.6 nM
